The entries below are paired with their reported normalized growth.
Experiment: chemical genetic growth profiling, strain panel (AID 1159580);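 further: tested at 20 µM; growth read once vehicle control cultures reached saturation at 30 °C; 1 = growth at the plate median or of vehicle wells; lower values mean less growth of the strain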
Conditions: S. cerevisiae deletion strains, growth OD, locus YML016C, strain PPZ1, hits give low values
Screen size: about 5,500 compounds; about 2,000 (36%) were called active. About 18% were inconclusive and are not listed. The list shows a part of the results.

{"columns": ["Molecule", "normalized growth"],
 "data": [
  ["COc1ccc(OC)c(C(O)CNC(=O)CN)c1 (stereo unspecified)", 0.99],
  ["COc1cc(CNC(=O)CCCC/C=C/C(C)C)ccc1O", 0.998],
  ["NCCc1cnc[nH]1", 1.01],
  ["CN1CC(CO)=C[C@@H]2c3cccc4[nH]cc(c34)C[C@H]21", 1],
  ["O=C(O)/C=C/c1ccc(O)c(O)c1", 1.01],
  ["COC(=O)[C@@H]1OC(=O)C2OC23[C@@]1(C)CCC1[C@]2(C)C(C[C@H](O)[C@]13C)C(C)(C)[C@H](OC(C)=O)C[C@@H]2OC(C)=O (stereo partly specified)", 1]
]}

====

Assay: chemical genetic growth profiling, strain panel (AID 1159580);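 further: tested at 20 µM; growth read once vehicle control cultures reached saturation at 30 °C; 1 = growth at the plate median or of vehicle wells; lower values mean less growth of the strain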
Conditions: S. cerevisiae deletion strains, growth OD, locus YDR502C, strain sam2
The campaign covered roughly 5,500 compounds. About 2,000 (36%) were called active. Roughly 18% stayed inconclusive and do not appear here. No stated cut-off is given here; in the data, active means normalized growth mostly below about 0.91 (no sharp cut-off); inconclusive means no clear call, values can overlap the other calls; inactive means mostly above about 0.92. The list shows a part of the results.
Possible outcomes: y (active), n (inactive)

{"columns": ["Molecule", "Assigned label"],
 "data": [
  ["Cc1ccc(S(=O)(=O)NC(=O)NN2CCCCCC2)cc1", "n"],
  ["CN(C)CCOC(c1ccc(Cl)cc1)c1ccccn1 (stereo unspecified)", "n"],
  ["CN1C2C[C@H](OC(=O)[C@H](CO)c3ccccc3)C[C@H]1[C@@H](O)C2", "n"],
  ["COc1ccc(C(=O)CC(=O)O)c2c1C=CC(C)(C)O2", "n"],
  ["NS(=O)(=O)c1cc2c(cc1Cl)NC=NS2(=O)=O", "n"],
  ["O=C1NCC2(CCN(CCc3ccccc3)CC2)O1", "n"],
  ["CN1CCC(OC(c2ccccc2)c2ccccc2)CC1", "n"],
  ["CC(=O)O[C@H]1C[C@@H](OC(C)=O)C(C)(C)C2CC(=O)[C@]3(C)C(CC[C@@]4(C)[C@H](C(=O)O)OC(=O)C5OC543)[C@]21C (stereo partly specified)", "n"],
  ["CC[C@@H](C(=O)C(C)[C@@H](O)[C@H](C)CCc1ccc(C)c(O)c1C(=O)O)C1OC(CC)(C2CC[C@](O)(CC)[C@H](C)O2)C[C@@H]1C (stereo partly specified)", "n"],
  ["COc1ccc2c(c1)OC/C(=C\\c1ccc(OC)c(O)c1)C2=O", "y"],
  ["COC(=O)C[C@H]1C2(C)CC34OC5(C)O[C@@]6([C@H](OC)C(OC(=O)C(C)C)[C@]7(C)C(/C(=C(/OC)C(C)C)C(=O)O[C@H]7c7ccoc7)[C@@]6(O5)[C@H](OC)[C@@]3(OC)C2OC(C)=O)[C@]14C (stereo partly specified)", "n"],
  ["CN1C2CCC1CC(OC(c1ccccc1)c1ccccc1N)C2 (stereo unspecified)", "n"],
  ["CN1C2CCC1CC(OC(c1ccccc1)c1ccccc1)C2 (stereo unspecified)", "n"],
  ["Cc1ccccc1C(OCCN(C)C)c1ccccc1 (stereo unspecified)", "n"],
  ["COC(=O)C[C@H]1C2(C)CC34OC5(C)O[C@@]6([C@H](OC(C)=O)C(OC(C)=O)[C@]7(C)C(/C(=C(/O)C(C)C)C(=O)O[C@H]7c7ccoc7)[C@@]6(O5)[C@H](OC(C)=O)[C@@]3(O)C2OC(=O)C(C)C)[C@]14C (stereo partly specified)", "n"],
  ["Clc1ccc(C(OCCN2CCCCC2)c2ccccc2)cc1 (stereo unspecified)", "n"]
]}

Measured values drawn from PubChem BioAssay AID1159580 for this set.
